assayed target: human GLP-1 receptor (human, UniProt P43220 24-463)
procedure details: cell-based or functional assay
Starred links: 1 amine or outer side, 2 acyl side, 3 side chain; linkers in the order of their positions; H or OH if unused. Non-standard residues stand in square brackets, D forms with d. Groups on a side chain read outwards from the residue. No end group written: not given here. *: point of attachment. C20 diacid = O=C(O)CCCCCCCCCCCCCCCCCCC(=O)*; C18 diacid = O=C(O)CCCCCCCCCCCCCCCCC(=O)*; γGlu = O=C(O)[C@H](CCC(=O)[*:2])N[*:1]; εLys = N[C@@H](CCCCN[*:1])C(=O)[*:2]; AEEA = NCCOCCOCC(=O)O; Aib = CC(C)(N)C(=O)O
Param label: returns Satisfied when EC50, CreLuc assay, 100% hP < 10 nM, returns Not satisfied otherwise, including exact equality.

binder: Y[Aib]EGTFTSDYSI[Aib]LEKQAQ[Aib]AFVEWLIKGGPESPASLRHYYNWLTRQRY-NH2 (not fully specified (residue 28); also: TFA salt) [Compound 64]
label: Not satisfied

binder: YXEGTFTSDYSIXLEEQAQXAFVQWLIKGGPSSGQSLRHYYNWLTRQRY (Aib at 2, 13, 20; K28 side chain: C20DA-gGlu-Glu-gGlu-gGlu-gGlu-gGlu-eLys; C-terminal NH2) [Compound 8]
label: Satisfied

binder: Y[Aib]EGTFTSDYSI[Aib]LEEEAQ[Aib]AFVQWLIK([εLys-εLys-γGlu-γGlu-γGlu-γGlu-γGlu-C20 diacid])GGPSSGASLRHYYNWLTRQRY-NH2 (also: TFA salt) [Compound 7]
label: Satisfied

binder: YXEGTFTSDYSIXLEKQAQXAFVEWLIKGGPSSYVSIRHYYNWLTRQRY (Aib at 2, 13, 20; K28 side chain: C20DA-gGlu-gGlu-gGlu-gGlu-gGlu-gGlu-eLys; C-terminal NH2) [Compound 9]
label: Satisfied

binder: YXEGTFTSDYSIXLEKQAQXAFVEWLIKGGPSSGASLRHYYNWLTXQRY (Aib at 2, 13, 20; hArg 46; DTyr 49; K28 side chain: C20DA-gGlu-gGlu-gGlu-gGlu-gGlu-gGlu-eLys; C-terminal NH2) [Compound 71]
label: Satisfied

binder: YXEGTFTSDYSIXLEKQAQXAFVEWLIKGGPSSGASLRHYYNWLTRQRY (Aib at 2, 13, 20; NMeR 48; K28 side chain: C20DA-gGlu-gGlu-gGlu-gGlu-gGlu-gGlu-eLys; C-terminal NH2) [Compound 83]
label: Satisfied

binder: Y[Aib]EGTFTSDYSI[Aib]LEKQAQ[Aib]AFVQWLIK([AEEA-AEEA-γGlu-γGlu-γGlu-γGlu-C18 diacid])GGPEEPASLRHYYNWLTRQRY-NH2 (also: TFA salt) [Compound 57]
label: Satisfied

binder: YXEGTFTSDYSIXLEXKAQXEFVEWLIKGGPSSGASLRHYYNWLTRQRY (Aib at 2, 13, 16, 20; K28 side chain: C20DA-gGlu-gGlu-gGlu-gGlu-gGlu-gGlu-eLys; C-terminal NH2) [Compound 24]
label: Not satisfied

binder: Y[Aib]EGTFTSDYSI[Aib]LEKQAQ[Aib]AFVEWLIK([εLys-γGlu-γGlu-γGlu-γGlu-γGlu-C20 diacid])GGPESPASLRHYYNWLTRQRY-NH2 (also: TFA salt) [Compound 70]
label: Not satisfied

binder: Y[Aib]EGTFTSDYSI[Aib]LEKQAQ[Aib]AFVQWLIK([εLys-Glu-Glu-Glu-Glu-Glu-C18 diacid])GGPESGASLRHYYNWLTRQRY-NH2 (also: TFA salt) [Compound 63]
label: Satisfied

binder: YXEGTFTSDYSIXLEKQAQXAFVEWLIKGGPSSPESXRHYYNWLTRQRY (Aib at 2, 13, 20, 37; K28 side chain: C20DA-gGlu-gGlu-gGlu-gGlu-gGlu-gGlu-eK; C-terminal NH2) [Compound 10]
label: Satisfied

binder: Y[Aib]EGTFTSDYSI[Aib]LEKQAQ[Aib]EFVEWLIK([AEEA-AEEA-γGlu-γGlu-γGlu-C18 diacid])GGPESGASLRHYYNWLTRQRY-NH2 (also: TFA salt) [Compound 81]
label: Not satisfied

binder: YXEGTFTSDYSIXLEKQAQXAFVQWLIKGGPSSGESLRHYYNWLTRQRY (Aib at 2, 13, 20; K28 side chain: C20DA-gGlu-gGlu-gGlu-gGlu-gGlu-gGlu-eK; C-terminal NH2) [Compound 35]
label: Satisfied

binder: YXEGTFTSDYSIXLEKQAQXAFVEWLIKGGPSSGASLRHYLNLXTRQRY (Aib at 2, 13, 20, 44; K28 side chain: C20DA-gGlu-gGlu-gGlu-gGlu-gGlu-gGlu-eLys; C-terminal NH2) [Compound 17]
label: Satisfied

binder: YXEGTFTSDYSIXLEXEAQXKFVEWLIKGGPSSGASLRHYYNWLTRQRY (Aib at 2, 13, 16, 20; K28 side chain: C20DA-gGlu-gGlu-gGlu-gGlu-gGlu-gGlu-eLys; C-terminal NH2) [Compound 16]
label: Not satisfied

binder: Y[Aib]EGTFTSDYSI[Aib]LEKQAQ[Aib]AFVQWLIK([AEEA-AEEA-γGlu-γGlu-γGlu-γGlu-C18 diacid])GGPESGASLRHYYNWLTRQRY-NH2 (also: TFA salt) [Compound 58]
label: Satisfied

binder: YXEGTFTSDYSIXLEKQAQXAFVQWLIKGGPSSGVSLRHYYNWLTRQRY (Aib at 2, 13, 20; K28 side chain: C20DA-gGlu-gGlu-gGlu-gGlu-gGlu-gGlu-eLys; C-terminal NH2) [Compound 47]
label: Satisfied

binder: YXEGTFTSDYSIXLEKQAQXAFVEWLIKGGPSSGQSXRHYYNWLTRQRY (Aib at 2, 13, 20, 37; K28 side chain: C20DA-gGlu-gGlu-gGlu-gGlu-gGlu-gGlu-eLys; C-terminal NH2) [Compound 44]
label: Satisfied

binder: YXEGTFTSDYSIXLEKQAQXAFVQWLIKGGQSSYASLRHYYNWLTRQRY (Aib at 2, 13, 20; K28 side chain: C20DA-gGlu-gGlu-gGlu-gGlu-gGlu-Glu-eLys; C-terminal NH2) [Compound 22]
label: Not satisfied
